run.description: qHTS assay for small molecule disruptors of the mitochondrial membrane potential - 1 hr assay (AID 651754); further: nearly all actives have a fitted effect of over 35% in size
condition.details: series mostly up to 92.2 µM
Excerpt: National Center for Advancing Translational Sciences [NCATS] NIH Chemical Genomics Center [NCGC] National Institutes of Environmental Health Sciences [NIEHS] National Toxicology Program [NTP] Mitochondrial membrane potential (MMP), one of the parameters for mitochondrial function, is generated by mitochondrial electron transport chain that creates an electrochemical gradient by a series of redox reactions. […] The dye accumulates in the mitochondria of healthy cells as aggregates, with red fluorescence. […]
Records with an inconclusive call do not appear. The source made the active and inactive calls. The call rests on the fitted dose curve.
measurement.label: outcome

chemical.structure	outcome
O=C1OC(=O)c2ccccc21	inactive
c1ccc(COCc2ccccc2)cc1	inactive
C/C(Cl)=C/CCl	inactive
O=[N+]([O-])c1cccc(I)c1	inactive

Enquiry: Report outcome for "C[Si](C)(C)Cl" please.
Return: inactive

Enquiry: Please give the measured outcome for this molecule: "O=C(O)/C=C/c1ccc(/C=C/C(=O)O)cc1"
Return: inactive
